Assay: Permeability across human Caco-2 cells
Type: ADME, cell-based
Conditions: read-out: permeability
reported metric: Papp (×10⁻⁶ cm/s)

>>> df
                                test_smiles  observed
0  CS(=O)(=O)NC[C@@H]1CCC[C@@]2(S(=O)(=O)c3ccc(C(F)(F)F)cc3)c3c(F)ccc(F)c3OC[C@@H]12      42.1
1  O=S(=O)(NC[C@@H]1CCC[C@@]2(S(=O)(=O)c3ccc(C(F)(F)F)cc3)c3c(F)ccc(F)c3OC[C@@H]12)C(F)(F)F        23

###

Experiment: Inhibition of gamma-secretase-mediated cleavage of human APP Swedish and London mutation expressed in HEK293 cell membrane
Assay type: cell-based
pIC50: −log10 of the molar value.
reported metric: pIC50

>>> print(df.to_string())
                                test_smiles  observed
0  O=S(=O)(NC[C@@H]1CCC[C@@]2(S(=O)(=O)c3ccc(Cl)cc3)c3c(F)ccc(F)c3OC[C@@H]12)c1c(F)cccc1F      7.89
1  CS(=O)(=O)NC[C@@H]1CCC[C@@]2(S(=O)(=O)c3ccc(Cl)cc3)c3c(F)ccc(F)c3OC[C@@H]12      8.60
2  CN(C)S(=O)(=O)NC[C@@H]1CCC[C@@]2(S(=O)(=O)c3ccc(Cl)cc3)c3c(F)ccc(F)c3OC[C@@H]12      8.57
3  CS(=O)(=O)N(C[C@@H]1CCC[C@@]2(S(=O)(=O)c3ccc(C(F)(F)F)cc3)c3c(F)ccc(F)c3OC[C@@H]12)C1CC1      8.24

###

# pIC50 per record follows
Experiment: Inhibition of gamma-secretase-mediated cleavage of human APP Swedish and London mutation expressed in HEK293 cell membrane
Format: cell-based
pIC50: −log10 of the molar value.
reported metric: pIC50

>>> df
                                test_smiles  reported_metric  observed
0  CCOC(=O)CCS(=O)(=O)NC[C@@H]1CCC[C@@]2(S(=O)(=O)c3ccc(Cl)cc3)c3c(F)ccc(F)c3OC[C@@H]12            pIC50      8.70
1  NS(=O)(=O)NC[C@@H]1CCC[C@@]2(S(=O)(=O)c3ccc(Cl)cc3)c3c(F)ccc(F)c3OC[C@@H]12            pIC50      8.70
2  CCS(=O)(=O)N(C[C@@H]1CCC[C@@]2(S(=O)(=O)c3ccc(C(F)(F)F)cc3)c3c(F)ccc(F)c3OC[C@@H]12)C1CC1            pIC50      7.55
3  O=S1(=O)CCCN1C[C@@H]1CCC[C@@]2(S(=O)(=O)c3ccc(C(F)(F)F)cc3)c3c(F)ccc(F)c3OC[C@@H]12            pIC50      7.05

###

# concentration at 6 h per record follows
Assay: Drug level in rat brain at 10 mg/kg, po after 6 hrs
Type: ADME, organism-based
Design: dose 10 mg/kg, route oral
Conditions: read-out: Drug uptake
reported metric: concentration at 6 h (ng/g)

>>> print(df.to_string())
                                test_smiles  observed
0  CS(=O)(=O)NC[C@@H]1CCC[C@@]2(S(=O)(=O)c3ccc(C(F)(F)F)cc3)c3c(F)ccc(F)c3OC[C@@H]12        80
1  O=S(=O)(NC[C@@H]1CCC[C@@]2(S(=O)(=O)c3ccc(C(F)(F)F)cc3)c3c(F)ccc(F)c3OC[C@@H]12)C(F)(F)F        91

###

Test: Ratio of drug level in brain to plasma in rat at 10 mg/kg, po
Type: ADME, organism-based
Set-up: dose 10 mg/kg, route oral
reported metric: Kp

>>> print(df.to_string())
                                test_smiles  observed
0  O=S(=O)(NC[C@@H]1CCC[C@@]2(S(=O)(=O)c3ccc(C(F)(F)F)cc3)c3c(F)ccc(F)c3OC[C@@H]12)C(F)(F)F      1.01
1  CS(=O)(=O)NC[C@@H]1CCC[C@@]2(S(=O)(=O)c3ccc(C(F)(F)F)cc3)c3c(F)ccc(F)c3OC[C@@H]12      0.73

###

Species: Homo sapiens
Experiment: Protein binding in human plasma
Details: read-out: PPB (converted)
reported metric: fraction unbound

>>> df
                                test_smiles  observed
0  O=S(=O)(NC[C@@H]1CCC[C@@]2(S(=O)(=O)c3ccc(C(F)(F)F)cc3)c3c(F)ccc(F)c3OC[C@@H]12)C(F)(F)F     0.001
1  CS(=O)(=O)NC[C@@H]1CCC[C@@]2(S(=O)(=O)c3ccc(C(F)(F)F)cc3)c3c(F)ccc(F)c3OC[C@@H]12     0.019

###

Experiment: Inhibition of gamma-secretase-mediated cleavage of human APP Swedish and London mutation expressed in HEK293 cells assessed as reduction in amyloid beta40 production after 4 hrs by ECL technology
Assay type: cell-based
pIC50: −log10 of the molar value.
# pIC50 per record follows
reported metric: pIC50

                                test_smiles  reported_metric  observed
0  CCN(C[C@@H]1CCC[C@@]2(S(=O)(=O)c3ccc(Cl)cc3)c3c(F)ccc(F)c3OC[C@@H]12)S(=O)(=O)CC            pIC50      7.82
1  CCN(C[C@@H]1CCC[C@@]2(S(=O)(=O)c3ccc(Cl)cc3)c3c(F)ccc(F)c3OC[C@@H]12)S(=O)(=O)C1CC1            pIC50      7.60
2  CS(=O)(=O)N(C[C@@H]1CCC[C@@]2(S(=O)(=O)c3ccc(Cl)cc3)c3c(F)ccc(F)c3OC[C@@H]12)C1CC1            pIC50      8.22
3  O=S(=O)(NC[C@@H]1CCC[C@@]2(S(=O)(=O)c3ccc(Cl)cc3)c3c(F)ccc(F)c3OC[C@@H]12)N1CCCCC1            pIC50      7.72

###

Experiment: Inhibition of gamma-secretase-mediated cleavage of human APP Swedish and London mutation expressed in HEK293 cells assessed as reduction in amyloid beta40 production after 4 hrs by ECL technology
Format: cell-based
pIC50: −log10 of the molar value.
# pIC50 per record follows
reported metric: pIC50

>>> print(df.to_string())
                                 test_smiles  observed
 0  CCOC(=O)CCS(=O)(=O)NC[C@@H]1CCC[C@@]2(S(=O)(=O)c3ccc(Cl)cc3)c3c(F)ccc(F)c3OC[C@@H]12      8.40
 1  CCS(=O)(=O)N(C[C@@H]1CCC[C@@]2(S(=O)(=O)c3ccc(C(F)(F)F)cc3)c3c(F)ccc(F)c3OC[C@@H]12)C1CC1      7.53
 2  O=S1(=O)CCCN1C[C@@H]1CCC[C@@]2(S(=O)(=O)c3ccc(C(F)(F)F)cc3)c3c(F)ccc(F)c3OC[C@@H]12      7.14
 3  O=S(=O)(CC(F)(F)F)NC[C@@H]1CCC[C@@]2(S(=O)(=O)c3ccc(C(F)(F)F)cc3)c3c(F)ccc(F)c3OC[C@@H]12      7.64
 4  O=S(=O)(NC[C@@H]1CCC[C@@]2(S(=O)(=O)c3ccc(Cl)cc3)c3c(F)ccc(F)c3OC[C@@H]12)C1CC1      8.40
 5  O=S(=O)(NC[C@@H]1CCC[C@@]2(S(=O)(=O)c3ccc(C(F)(F)F)cc3)c3c(F)ccc(F)c3OC[C@@H]12)C1CC1      7.76
 6  NS(=O)(=O)NC[C@@H]1CCC[C@@]2(S(=O)(=O)c3ccc(Cl)cc3)c3c(F)ccc(F)c3OC[C@@H]12      9.00
 7  O=S(=O)(NC[C@@H]1CCC[C@@]2(S(=O)(=O)c3ccc(Cl)cc3)c3c(F)ccc(F)c3OC[C@@H]12)C1CCCCC1      7.22
 8  O=S(=O)(NC[C@@H]1CCC[C@@]2(S(=O)(=O)c3ccc(Cl)cc3)c3c(F)ccc(F)c3OC[C@@H]12)c1ccccc1      6.89
 9  CCN(CC)S(=O)(=O)NC[C@@H]1CCC[C@@]2(S(=O)(=O)c3ccc(Cl)cc3)c3c(F)ccc(F)c3OC[C@@H]12      8.22
10  O=S(=O)(CC(F)(F)F)NC[C@@H]1CCC[C@@]2(S(=O)(=O)c3ccc(Cl)cc3)c3c(F)ccc(F)c3OC[C@@H]12      7.80
11  O=S(=O)(N(C[C@@H]1CCC[C@@]2(S(=O)(=O)c3ccc(Cl)cc3)c3c(F)ccc(F)c3OC[C@@H]12)C1CC1)C(F)(F)F      7.68
12  CCN(C[C@@H]1CCC[C@@]2(S(=O)(=O)c3ccc(C(F)(F)F)cc3)c3c(F)ccc(F)c3OC[C@@H]12)S(C)(=O)=O      7.73
13  O=S(=O)(NC[C@@H]1CCC[C@@]2(S(=O)(=O)c3ccc(C(F)(F)F)cc3)c3c(F)ccc(F)c3OC[C@@H]12)C(F)(F)F      7.39
